- target under test: CXCR2 (Homo sapiens (Human))
- Sequence (P25025 whole entry): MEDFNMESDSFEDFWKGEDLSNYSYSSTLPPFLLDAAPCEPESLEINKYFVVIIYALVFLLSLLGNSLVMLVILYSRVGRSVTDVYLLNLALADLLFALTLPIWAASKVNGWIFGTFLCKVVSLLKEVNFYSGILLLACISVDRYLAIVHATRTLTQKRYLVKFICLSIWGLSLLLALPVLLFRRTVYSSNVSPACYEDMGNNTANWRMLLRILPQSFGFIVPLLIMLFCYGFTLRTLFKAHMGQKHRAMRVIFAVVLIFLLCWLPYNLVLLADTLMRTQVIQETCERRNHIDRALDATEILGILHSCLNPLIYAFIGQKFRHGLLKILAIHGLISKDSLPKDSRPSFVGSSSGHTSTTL
- test: PathHunter CXCR2 β-arrestin cell assay, antagonism of CXCL8 (EC80)
- conditions: PathHunter CXCR2 β-arrestin cells, CXCL8 agonist at EC80
pIC50: −log10 of the molar value.
observed property: pIC50

Reference set (6 entries):
> print(dat)
                                   compound             target.under.test  observed.property  readout.number
1  CC(C)S(=O)(=O)c1c(Cl)ccc(NC(=O)NC2CCCc3occc32)c1O (single isomer, unassigned) [WX002A]  CXCR2 (Homo sapiens (Human))              pIC50            7.35
2  O=C(Nc1ccc(Cl)c(S(=O)(=O)C2CC2)c1O)NC1CCCc2ccoc21 (single isomer, unassigned) [WX006A]  CXCR2 (Homo sapiens (Human))              pIC50            7.66
3  CC(C)S(=O)(=O)c1c(Cl)ccc(NC(=O)NC2CCCc3cc(C(F)(F)F)oc32)c1O (stereo not drawn)  CXCR2 (Homo sapiens (Human))              pIC50            7.26
4  O=C(Nc1ccc(Cl)c(S(=O)(=O)CCN2C(=O)c3ccccc3C2=O)c1O)NC1CCCc2ccoc21 (stereo not drawn)  CXCR2 (Homo sapiens (Human))              pIC50            6.63
5  O=C(Nc1ccc(Cl)c(S(=O)(=O)C2CCCCC2)c1O)N[C@H]1CCCc2ccoc21 [WX011A]  CXCR2 (Homo sapiens (Human))              pIC50            7.15
6  O=C(Nc1ccc(Cl)c(S(=O)(=O)C2CC2)c1O)NC1CCCc2ncsc21 (stereo not drawn)  CXCR2 (Homo sapiens (Human))              pIC50            6.33

I: O=C(CS(=O)(=O)c1c(Cl)ccc(NC(=O)NC2CCCc3ccoc32)c1O)NCC(F)(F)F (single isomer, unassigned) [WX018A]
II: O=C(Nc1ccc(Cl)c(S(=O)(=O)CC(F)(F)F)c1O)N[C@H]1CCCc2ccoc21 [WX012A]
-- ask Field: lower recorded pIC50 (choose I or II ) Please identify the chosen entry by its label.
-- reply I
(I: 6.88, II: 7.77)

1: O=C(Nc1ccc(Cl)c(S(=O)(=O)CCNC(=O)C2CC2)c1O)NC1CCCc2ccoc21 (single isomer, unassigned) [WX016A]
2: CC1(C)NCCCC1S(=O)(=O)c1c(Cl)ccc(NC(=O)NC2CCCc3ccoc32)c1O (stereo not drawn)
-- ask Would you let me know which has the greater pIC50 value, 1 or 2 ? Please identify the chosen entry by its label.
-- reply 2
(2: 7.64, 1: 6.87)

###

- test: Pharmacokinetic evaluation in C57BL/6 mice
- Format: in vivo
- conditions: male, mouse, plasma, po, 5 mg/kg, gavage 5 mpk vs intravenous 1 mpk, read-out: Bioavailability (F)
observed property: bioavailability (%)

Reference set (2 entries):
> print(dat)
                                   compound  units.label  readout.number
1  O=C(Nc1ccc(Cl)c(S(=O)(=O)[C@H]2CCCNC2)c1O)NC1CCCc2ccoc21 (single isomer, unassigned) [WX013A]            %            75.5
2  O=C(Nc1ccc(Cl)c(S(=O)(=O)CC(F)(F)F)c1O)N[C@H]1CCCc2ccoc21 [WX012A]            %            82.5

I: Cc1c(F)cccc1NC(=O)Nc1ccc(Cl)c(S(=O)(=O)[C@H]2CCCNC2)c1O [Danirixin, danirixin, reference compound]
II: CC(C)S(=O)(=O)c1c(Cl)ccc(NC(=O)N[C@H]2CCCc3ccoc32)c1O [WX003A]
-- ask Field: lower recorded bioavailability (choose I or II ) Please identify the chosen entry by its label.
-- reply I
